# Lookup of reported ED50 keyed by entry
System: gastric acid secretion
Experiment: Inhibition of gastric acid secretion (Total Acid Output) in rats; antisecretory activity
Format: in vivo, Female Sprague-Dawley rats
Settings: 1 h; rat; po, one hour prior to surgery; read-out: ED50 (dose required to produce an average of 50% inhibition in Total Acid Output versus controls)
Counter-ions that a name gives are not always drawn.
# unit: mg/kg | format: bare number

Example entries and their recorded answers appear below.
CCCCCCCCCCCCN=CN1CCC(C(c2ccccc2)c2ccccc2)CC1.O=C(O)/C=C/C(=O)O    53
CCCCCCCCN=CN1CCC(=C(c2ccccc2)c2ccccc2)CC1 [R1,A=benzhydrylidene; R2=H; R3=n-octyl]    0.625

// ED50 lookup, key: `N=CN1CCC(Cc2ccccc2)CC1`
114

Please give the measured ED50 for this compound: CCN=CN1CCC(C(c2ccccc2)c2ccccc2)CC1 [R1=diphenylmethyl; A=H; R2=H; R3=ethyl, oxalate hemihydrate]
4.3

Data origin: patent US4251655A
